B1: WW domain-containing transcription regulator protein 1, residues 116 to 162; numbered along this chain, Q9GZV5 (parent)
chain: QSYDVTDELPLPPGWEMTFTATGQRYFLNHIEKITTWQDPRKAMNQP

# Variants of: B1
# testDescription: abundance fitness (aPCA) (normalised: wild type 0, dead -1); higher = more abundant; growth selection in yeast, the domain comes from the species named
# testConditions: Homo sapiens
Kindly return fulfilled if reported abundance fitness is no lower than -0.4; return not fulfilled if it is lower.

Exercise: Textbook exercise: given the entry M17G , state whether its abundance fitness is greater than or equal to -0.4.
Key: fulfilled

Exercise: Entry L11E : is its abundance fitness no less than -0.4?
Key: not fulfilled

Exercise: Does abundance fitness meet or surpass -0.4 for K42L ?
Key: fulfilled
